Reported FACS-Seq fitted mean (log10) values for the following variants.
B1: library; a variant is named by its letters at N, in order (parent)
chain: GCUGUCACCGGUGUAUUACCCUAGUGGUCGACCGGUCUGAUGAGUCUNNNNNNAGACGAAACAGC

variants of: B1; assay: FACS-Seq fitted mean relative fluorescence mCherry/BFP with ligand (log10 relative fluorescence); ligand: hypoxanthine (xanthine aptamer); ligand concentration (+) FACS-Seq: 5 mM; higher = higher reporter protein expression; details: HEK293T, ligand present: yes

- residueSequence: "GCUGUCACCGGUGUAUUACCCUAGUGGUCGACCGGUCUGAUGAGUCUUAGUAGAGACGAAACAGC [UAGUAG]"
  FACS-Seq fitted mean (log10): 0.441
- residueSequence: "GCUGUCACCGGUGUAUUACCCUAGUGGUCGACCGGUCUGAUGAGUCUAUGGUAAGACGAAACAGC [AUGGUA]"
  FACS-Seq fitted mean (log10): 0.304
- residueSequence: "GCUGUCACCGGUGUAUUACCCUAGUGGUCGACCGGUCUGAUGAGUCUGAUCACAGACGAAACAGC [GAUCAC]"
  FACS-Seq fitted mean (log10): 0.417
- residueSequence: "GCUGUCACCGGUGUAUUACCCUAGUGGUCGACCGGUCUGAUGAGUCUCCCUAAAGACGAAACAGC [CCCUAA]"
  FACS-Seq fitted mean (log10): 0.837
- residueSequence: "GCUGUCACCGGUGUAUUACCCUAGUGGUCGACCGGUCUGAUGAGUCUUAAAGUAGACGAAACAGC [UAAAGU]"
  FACS-Seq fitted mean (log10): 0.708
- residueSequence: "GCUGUCACCGGUGUAUUACCCUAGUGGUCGACCGGUCUGAUGAGUCUCGUACCAGACGAAACAGC [CGUACC]"
  FACS-Seq fitted mean (log10): 0.536
- residueSequence: "GCUGUCACCGGUGUAUUACCCUAGUGGUCGACCGGUCUGAUGAGUCUGCUCGGAGACGAAACAGC [GCUCGG]"
  FACS-Seq fitted mean (log10): 0.851
- residueSequence: "GCUGUCACCGGUGUAUUACCCUAGUGGUCGACCGGUCUGAUGAGUCUACAUGUAGACGAAACAGC [ACAUGU]"
  FACS-Seq fitted mean (log10): 0.567
- residueSequence: "GCUGUCACCGGUGUAUUACCCUAGUGGUCGACCGGUCUGAUGAGUCUAUGCGAAGACGAAACAGC [AUGCGA]"
  FACS-Seq fitted mean (log10): 0.395
- residueSequence: "GCUGUCACCGGUGUAUUACCCUAGUGGUCGACCGGUCUGAUGAGUCUGGGGCCAGACGAAACAGC [GGGGCC]"
  FACS-Seq fitted mean (log10): 0.0142
- residueSequence: "GCUGUCACCGGUGUAUUACCCUAGUGGUCGACCGGUCUGAUGAGUCUACAGGGAGACGAAACAGC [ACAGGG]"
  FACS-Seq fitted mean (log10): 0.788
- residueSequence: "GCUGUCACCGGUGUAUUACCCUAGUGGUCGACCGGUCUGAUGAGUCUGUGUGCAGACGAAACAGC [GUGUGC]"
  FACS-Seq fitted mean (log10): 0.597
- residueSequence: "GCUGUCACCGGUGUAUUACCCUAGUGGUCGACCGGUCUGAUGAGUCUCCGGUUAGACGAAACAGC [CCGGUU]"
  FACS-Seq fitted mean (log10): 0.297
- residueSequence: "GCUGUCACCGGUGUAUUACCCUAGUGGUCGACCGGUCUGAUGAGUCUACACGAAGACGAAACAGC [ACACGA]"
  FACS-Seq fitted mean (log10): 0.145
- residueSequence: "GCUGUCACCGGUGUAUUACCCUAGUGGUCGACCGGUCUGAUGAGUCUAACCAGAGACGAAACAGC [AACCAG]"
  FACS-Seq fitted mean (log10): 0.678
- residueSequence: "GCUGUCACCGGUGUAUUACCCUAGUGGUCGACCGGUCUGAUGAGUCUAAGACGAGACGAAACAGC [AAGACG]"
  FACS-Seq fitted mean (log10): 0.587
